Test system: expanded OPCs
Assay: cells
Conditions: Rattus norvegicus, 72 h, read-out: 1 µM (% DMSO), alamarBlue viability of expanded OPCs, compound at 1 µM, sheet All Tox data
READOUT LABEL: viability at 1 µM (%)
Lab book: enter the figure in %, no units written.

| COMPOUND | READOUT LABEL | OBSERVED VALUE |
| --- | --- | --- |
| Oc1ccc2c3c1O[C@H]1c4[nH]c5ccccc5c4C[C@@]4(O)[C@@H](C2)N(CC2CC2)CC[C@]314 [Naltrindole] | viability at 1 µM | 66.7 |
| CCOC(=O)C1=C(C)NC(C)=C(C(=O)OC)C1c1cccc([N+](=O)[O-])c1 (stereo not drawn) [Nitrendipine] | viability at 1 µM | 90.7 |
| COc1ccc2c3c1O[C@H]1C[C@@H](O)C=C[C@@]31CCN(C)C2 [Galantamine] | viability at 1 µM | 81.7 |
| O=C(O)c1cc(/N=N/c2ccc(S(=O)(=O)Nc3ccccn3)cc2)ccc1O [Sulfasalazine] | viability at 1 µM | 89.8 |
| CC(C)NCC(O)c1ccc(NS(C)(=O)=O)cc1 (stereo not drawn) [Sotalol] | viability at 1 µM | 89.5 |
| CCCN[C@H]1CCc2nc(N)sc2C1 [Pramipexole] | viability at 1 µM | 92.5 |

# input Fill blank: measured viability at 1 µM of the compound CCCc1c(OCCCCc2nnn[nH]2)ccc(C(C)=O)c1O [LY 171883] is ____.
# output 81.3

# input Fill blank: measured viability at 1 µM of the compound [H]/N=C(/NC)NCCC[C@H](N)C(=O)O [L-NMMA] is ____.
# output 92.4

# input Fill blank: measured viability at 1 µM of the compound C#C[C@]1(O)CC[C@H]2[C@@H]3CCC4=CC(=O)CC[C@@H]4[C@H]3CC[C@@]21CC [Levonorgestrel] is ____.
# output 88

# input Fill blank: measured viability at 1 µM of the compound Cc1ccc(O)c([C@H](CCN(C(C)C)C(C)C)c2ccccc2)c1 [Tolterodine] is ____.
# output 87.8

# input Fill blank: measured viability at 1 µM of the compound COc1ccc(C(CN(C)C)C2(O)CCCCC2)cc1 (stereo not drawn) [Venlafaxine] is ____.
# output 85.2

---

Test system: expanded OPCs
Test: cells
Settings: Rattus norvegicus, 72 h, read-out: 10 µM (% DMSO), alamarBlue viability, NCC library compound at 10 µM, sheet "All Tox data"
In this section, each of the compounds is paired with its reported viability at 10 µM.
Lab book: enter the figure in %, no units written.

Recorded results for 3 compounds are shown here.
| COMPOUND | viability at 10 µM (%) |
| --- | --- |
| CN(C)CCc1c[nH]c2ccc(C[C@H]3COC(=O)N3)cc12 | 95.5 |
| C#C[C@]1(O)CC[C@H]2[C@@H]3[C@H](C)CC4=C(CCC(=O)C4)[C@H]3CC[C@@]21C | 77.4 |
| CN1CCC(=C2c3ccccc3CC(=O)c3sccc32)CC1 | 36.9 |

# input Fill blank: measured viability at 10 µM of the compound CC[N+](C)(CC)CCOC(=O)C(O)(c1ccccc1)C1CCCCC1 (stereo not drawn) is ____.
# output 94.9

# input Fill blank: measured viability at 10 µM of the compound CCCCC1=NC2(CCCC2)C(=O)N1Cc1ccc(-c2ccccc2-c2nnn[nH]2)cc1 is ____.
# output 89.7

Each recorded value in this set is attributed to paper PMC5011342.
